# Test system: NCI-H522 lung
# assay: NCI-60 one-dose screen, 48 h
# test.parameters: 10 µM unless noted
# Method: Growth inhibition of the NCI-H522 human Non-Small Cell Lung tumor cell line is measured as a screen for anti-cancer activity. Cells are grown in 96 well plates and exposed to the test compound for 48 hours. Compounds are tested at a single concentration, which is 10^-5 M for most compounds. The reported endpoint is percent growth (GI% or GIPRCNT), where numbers from 0 - 100% represent growth inhibition, and numbers from -100% - 0 represent cell death. […]
Compounds without any hit were thinned out: in the full panel of roughly 83,000, 20% have a hit. Active and inactive are the calls of the source. How the source made its calls: active means growth percent below 10; inactive means the rest.
Log the outcome using a class from Y for active, N for inactive

Answered examples (8):
- molecule: "CCOC(=O)c1cc2c(n1Cc1ccccc1OC)-c1oncc1CCC2"
  label: "N"
- molecule: "COc1cc2nc(NC3CCCC3)nc(NC3CCN(C(C)C)CC3)c2cc1OC"
  label: "N"
- molecule: "COc1cc(C2C3=C(COC3=O)N(CCO)c3cc4c(cc32)OCCO4)cc(OC)c1O (stereo not given)"
  label: "Y"
- molecule: "O=C1c2cc(Cl)ccc2Oc2cc([N+](=O)[O-])ccc2N1c1ccc(F)cc1F"
  label: "N"
- molecule: "COc1ccccc1N1CCN(C(CNS(=O)(=O)c2ccc(Cl)cc2)c2cccnc2)CC1 (stereo not given)"
  label: "N"
- molecule: "CC/C=C\\C[C@H](O)C/C=C1/C(=O)C=C[C@@H]1C/C=C\\CCCC(=O)OCCS(=O)(=O)c1ccccc1"
  label: "Y"
- molecule: "O=C(CSc1ccc2nnc(-c3cccc(F)c3)n2n1)Nc1ccc2c(c1)OCO2"
  label: "N"
- molecule: "NC1(N2SC(S)=C3CCCC=C32)CCCCC1"
  label: "N"

State the result this test recorded for O=C(c1nc2ccccc2[nH]1)C1[C@@H](c2cccc(O)c2)C2CC3CCCCC3N2[C@@]12C(=O)Nc1cc(Cl)ccc12 (stereo not given in full) .
N

Can you handle COC(=O)C1=Nc2ccc(F)cc2/C1=C/c1sc(=S)[nH]c1O next?
Y
